- Tested on: CHK2 (UniProt O96017)
- Sequence (O96017 whole entry): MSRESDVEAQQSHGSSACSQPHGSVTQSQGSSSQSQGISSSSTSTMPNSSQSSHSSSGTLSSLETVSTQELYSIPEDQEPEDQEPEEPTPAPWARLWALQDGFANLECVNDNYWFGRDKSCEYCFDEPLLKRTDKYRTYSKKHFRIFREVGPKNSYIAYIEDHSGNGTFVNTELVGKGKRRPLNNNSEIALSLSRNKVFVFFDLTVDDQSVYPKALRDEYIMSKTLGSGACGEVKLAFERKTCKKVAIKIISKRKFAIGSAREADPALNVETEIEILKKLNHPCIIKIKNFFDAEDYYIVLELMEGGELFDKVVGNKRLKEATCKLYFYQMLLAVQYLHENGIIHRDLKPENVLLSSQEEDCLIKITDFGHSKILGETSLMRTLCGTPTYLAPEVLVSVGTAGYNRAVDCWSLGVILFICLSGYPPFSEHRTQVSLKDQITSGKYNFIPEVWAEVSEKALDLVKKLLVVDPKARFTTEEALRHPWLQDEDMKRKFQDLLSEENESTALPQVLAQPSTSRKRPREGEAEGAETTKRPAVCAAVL
- Assay explanation: EMSA
- Details: SEQ:22 is the DNA template strand, RNA is its reverse complement; bulk pool, 72% bound at highest protein
Test readout: Kd (nM)
Respond numerically; units are nM and should not be typed.

Enquiry: Could you share which Kd value was measured for AAGCUUCGUCAAGUCUGCAGUGAANNNNNNNNNNNNNNNNNNNNNNNNNNNNNNNNNNNNNNNNNNNNNNNNNNNNNNNNNNNNNNNNNNNNNNGAAUUCGUAGAUGUGGAUCCAUUCCC [CHK2 RAPID Cycle 4 pool] ?
Return: 209

###

- Tested on: CHK2 (UniProt O96017)
- Assay explanation: EMSA
- Details: SEQ:22 is the DNA template strand, RNA is its reverse complement; starting library, 59% bound at highest protein
pKd: −log10 of the molar value.
Test readout: pKd

Enquiry: Suppose we examine the sequence AAGCUUCGUCAAGUCUGCAGUGAANNNNNNNNNNNNNNNNNNNNNNNNNNNNNNNNNNNNNNNNNNNNNNNNNNNNNNNNNNNNNNNNNNNNNNGAAUUCGUAGAUGUGGAUCCAUUCCC [N70 starting RNA library] ; what pKd value has been reported?
Return: < 6.00
